Where do these numbers come from? They come from patent US20250214978A1.

assay: Liver microsome stability assay; format: in vitro ADME; settings: Mouse liver microsomes; read-out: T1/2 (min) Mouse
parameter_measured: half-life at 1 μM (min)

query: Supply measured half-life at 1 μM of CCCCOC(=O)NS(=O)(=O)c1sc(CC(C)C)cc1-c1ccc(Cn2ccnc2)cc1 [Control Compound I, reference compound] in your reply.
result: 49.1

(1) COC(=O)NS(=O)(=O)c1sc(CC(C)C)c(C)c1-c1ccc(Cn2ccnc2C)cc1
(2) COC(=O)NS(=O)(=O)c1sc(CC(C)C)c(C)c1-c1ccc(Cn2ccnc2Cl)cc1
query: Of the pair 1 and 2 , name the member with the lesser recorded half-life at 1 μM. Which one? Tell me its label.
result: 2
(2: 61.9 min, 1: 1730 min)

###

molecular target: UniProt P33261; experiment: CYP inhibition assay in mixed human liver microsomes; format: in vitro ADME; details: mixed (pooled) human liver microsomes, read-out: Inhibition rate % CYP2C19
Sequence (P33261 whole entry): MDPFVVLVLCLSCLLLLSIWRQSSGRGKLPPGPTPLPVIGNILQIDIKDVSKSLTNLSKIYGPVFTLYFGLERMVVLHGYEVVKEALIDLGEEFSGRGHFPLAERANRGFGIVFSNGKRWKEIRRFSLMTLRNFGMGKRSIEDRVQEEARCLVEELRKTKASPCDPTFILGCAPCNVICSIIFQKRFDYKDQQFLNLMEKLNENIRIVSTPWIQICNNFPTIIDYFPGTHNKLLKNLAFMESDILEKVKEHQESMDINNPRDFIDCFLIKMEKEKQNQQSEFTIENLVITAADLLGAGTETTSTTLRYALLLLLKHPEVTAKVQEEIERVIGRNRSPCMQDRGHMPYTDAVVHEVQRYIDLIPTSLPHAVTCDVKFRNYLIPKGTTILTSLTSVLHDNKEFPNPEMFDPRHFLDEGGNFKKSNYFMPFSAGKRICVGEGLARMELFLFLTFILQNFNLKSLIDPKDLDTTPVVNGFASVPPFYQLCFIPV
parameter_measured: inhibition at 10 µM (%)

Below are worked cases with known answers.
query: Supply measured inhibition at 10 µM of "CCCCOC(=O)NS(=O)(=O)c1sc(CC(C)C)cc1-c1ccc(Cn2ccnc2C)c(C#N)c1" in your reply.
result: 30.2

query: Supply measured inhibition at 10 µM of "COC(=O)NS(=O)(=O)c1sc(CC(C)C)c(C)c1-c1ccc(Cn2ccnc2Cl)cc1" in your reply.
result: 36.5

query: Supply measured inhibition at 10 µM of "COC(=O)NS(=O)(=O)c1sc(CC(C)C)cc1-c1ccc(Cn2ccnc2C)cc1C" in your reply.
result: 11

(A) CCc1nccn1Cc1ccc(-c2cc(CC(C)C)sc2S(=O)(=O)NC(=O)OC)cc1C#N
(B) COC(=O)NS(=O)(=O)c1sc(CC(C)C)cc1-c1ccc(Cn2ccnc2C(C)(C)C)c(C#N)c1
query: Of the pair A and B , name the member with the lesser recorded inhibition at 10 µM. Which one? Tell me its label.
result: B

###

target: AT2R (Homo sapiens (Human), UniProt P50052)
Sequence (P50052 whole entry): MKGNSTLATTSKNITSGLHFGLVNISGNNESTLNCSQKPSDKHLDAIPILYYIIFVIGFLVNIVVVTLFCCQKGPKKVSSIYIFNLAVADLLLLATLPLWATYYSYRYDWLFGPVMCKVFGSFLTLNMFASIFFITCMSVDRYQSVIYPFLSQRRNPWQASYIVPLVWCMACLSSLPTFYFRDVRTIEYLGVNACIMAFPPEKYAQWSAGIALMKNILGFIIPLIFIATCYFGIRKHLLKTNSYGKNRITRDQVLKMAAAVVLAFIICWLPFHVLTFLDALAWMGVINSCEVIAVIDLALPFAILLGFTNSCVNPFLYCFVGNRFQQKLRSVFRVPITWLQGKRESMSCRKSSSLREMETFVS
pIC50: −log10 of the molar value.
parameter_measured: pIC50

Below are worked cases with known answers.
query: Supply measured pIC50 of "CCc1nccn1Cc1ccc(-c2c(S(=O)(=O)NC(=O)OC)sc(CC(C)C)c2C)cc1" in your reply.
result: 8.88

query: Supply measured pIC50 of "COC(=O)NS(=O)(=O)c1sc(CC(C)C)cc1-c1ccc(Cn2ccnc2C(C)(C)C)cc1C#N" in your reply.
result: 8.68

query: Supply measured pIC50 of "CCNC(=O)NS(=O)(=O)c1sc(CC(C)C)cc1-c1ccc(Cn2ccnc2C)c(C)c1" in your reply.
result: 8.14

query: Supply measured pIC50 of CCCCOC(=O)NS(=O)(=O)c1sc(CC(C)C)cc1-c1ccc(C(C)n2ccnc2)cc1 (stereo not drawn) in your reply.
result: 8.42

query: Supply measured pIC50 of "COC(=O)NS(=O)(=O)c1sc(CC(C)C)cc1-c1ccc(Cn2ccnc2C(C)(C)C)c(C#N)c1" in your reply.
result: 8.76

query: Supply measured pIC50 of "CCCCOC(=O)NS(=O)(=O)c1sc(CC(C)C)cc1-c1ccc(Cn2ccnc2)c(C#N)c1" in your reply.
result: 8.45

(P) CCc1nccn1Cc1ccc(-c2cc(CC(C)C)sc2S(=O)(=O)NC(=O)OC)cc1C#N
(Q) CCCCOC(=O)NS(=O)(=O)c1sc(CC(C)C)cc1-c1ccc(Cn2ccnc2)nc1
(R) CCCCOC(=O)NS(=O)(=O)c1sc(CC(C)C)c(C)c1-c1ccc(Cn2ccnc2C)cc1
query: Endpoint returns the given molecules ordered by ascending pIC50. In plain terms: list the labels in the order you were asked to.
result: Q, R, P
(Q: 7.94, R: 8.31, P: 8.77)
